Origin of measurements: ChEMBL document CHEMBL6127069

assay: Inhibition of N-terminal poly-His tail-tagged human FPPS-T266S mutant (67 to 419 residues) expressed in Escherichia coli BL21(DE3)-pLysS cells assessed as inhibition of GPP production using IPP and DMAPP as substrate by 1H 1D NMR enzymatic analysis
pIC50: −log10 of the molar value. Square brackets hold non-standard residues; d marks the D form. Peptide text beside a SMILES is read from it. pT = C[C@@H](OP(=O)(O)O)[C@H](N)C(=O)O
quantityMeasured: pIC50

# molecule, recordedValue
measured = [
    ("CC(C)C[C@H](NC(=O)[C@@H](N)Cc1ccccc1)C(=O)N[C@@H](Cc1ccc(O)cc1)C(=O)N[C@@H](CO)C(=O)N[C@H](C(N)=O)[C@@H](C)OP(=O)(O)O (H-FLYS[pT]-NH2)", 3.19),
    ("C[C@@H](O)[C@H](NC(=O)[C@@H]1CCCN1C(=O)[C@H](Cc1cnc[nH]1)NC(=O)[C@@H](NC(=O)[C@@H](N)Cc1ccc(O)cc1)[C@@H](C)OP(=O)(O)O)C(=O)O (H-Y[pT]HPT-OH)", 3.08),
]

====

experiment: Binding affinity to N-terminal poly-His tail-tagged human FPPS-T266S mutant (67 to 419 residues) expressed in Escherichia coli BL21(DE3)-pLysS cells assessed as dissociation constant in presence of NOV_980 by surface plasmon resonance analysis
pKd: −log10 of the molar value. Square brackets hold non-standard residues; d marks the D form. Peptide text beside a SMILES is read from it. pT = C[C@@H](OP(=O)(O)O)[C@H](N)C(=O)O
quantityMeasured: pKd

# compound, quantityMeasured, recordedValue
data = [
    ("C[C@@H](O)[C@H](NC(=O)[C@@H]1CCCN1C(=O)[C@H](Cc1cnc[nH]1)NC(=O)[C@@H](NC(=O)[C@@H](N)Cc1ccc(O)cc1)[C@@H](C)OP(=O)(O)O)C(=O)O (H-Y[pT]HPT-OH)", "pKd", 5.01),
]
